- assay-summary: qHTS assay for small molecule disruptors of the mitochondrial membrane potential - cell viability (AID 720634); also: nearly all actives have a fitted effect of over 20% in size
- setup-conditions: HepG2 viability, ATP luminescence (CellTiter-Glo), 1 h; series mostly up to 83.2 µM
- Description: U.S. Tox21 Program National Center for Advancing Translational Sciences [NCATS] NIH Chemical Genomics Center [NCGC] U.S. Environmental Protection Agency [EPA] National Institutes of Environmental Health Sciences [NIEHS] National Toxicology Program [NTP] […] Measuring MMP in living cells is commonly used to assess the effect of chemicals on mitochondrial function; decreases in MMP can be detected using lipophilic cationic fluorescent dyes. […] The cytotoxicity was measured in the same assay well of MMP assay. […]
Inconclusive results are not listed. Activity calls are given as the source filed them. Calls follow the shape of the full dose curve.
Possible outcomes: TRUE (active), FALSE (inactive)

molecule=Cc1ccc(C)c2ccccc12 assigned_label=FALSE
molecule=CCOP(=O)(OCC)Oc1nc(Cl)c(Cl)cc1Cl assigned_label=FALSE
molecule=Clc1ccc(C2(Cn3cncn3)OCCO2)c(Cl)c1 assigned_label=FALSE
molecule="CCCCn1cc[n+](C)c1 (tested in a mixture with another compound)" assigned_label=FALSE
molecule=CC(=O)[O][Sn]([c]1ccccc1)([c]1ccccc1)[c]1ccccc1 assigned_label=TRUE
molecule=ClSC(Cl)(Cl)Cl assigned_label=FALSE
molecule=O=C1C[C@@H]2OCC=C3CN4CC[C@]56c7ccccc7N1[C@H]5[C@H]2[C@H]3C[C@H]46 assigned_label=FALSE
molecule=O.O.O.O.O.O.O.O=S(=O)([O-])[O-].[Co+2] assigned_label=FALSE
molecule=CC(C)=CCN1CC[C@@]2(C)c3cc(O)ccc3C[C@@H]1[C@@H]2C assigned_label=FALSE
molecule=O=C(O)CCCCCCNC1c2ccccc2CCc2ccccc21 assigned_label=FALSE
molecule=O=P(Cl)(Cl)Cl assigned_label=FALSE
molecule=Nc1nc(N)nc(Cl)n1 assigned_label=FALSE
molecule="CCNc1nc(NC(C)C(C)C)nc(SC)n1 (stereo not drawn)" assigned_label=FALSE
